test target: T1, membrane-bound human IL-6R on TF-1 cells (human, UniProt P08887 20-468)
T1 sequence: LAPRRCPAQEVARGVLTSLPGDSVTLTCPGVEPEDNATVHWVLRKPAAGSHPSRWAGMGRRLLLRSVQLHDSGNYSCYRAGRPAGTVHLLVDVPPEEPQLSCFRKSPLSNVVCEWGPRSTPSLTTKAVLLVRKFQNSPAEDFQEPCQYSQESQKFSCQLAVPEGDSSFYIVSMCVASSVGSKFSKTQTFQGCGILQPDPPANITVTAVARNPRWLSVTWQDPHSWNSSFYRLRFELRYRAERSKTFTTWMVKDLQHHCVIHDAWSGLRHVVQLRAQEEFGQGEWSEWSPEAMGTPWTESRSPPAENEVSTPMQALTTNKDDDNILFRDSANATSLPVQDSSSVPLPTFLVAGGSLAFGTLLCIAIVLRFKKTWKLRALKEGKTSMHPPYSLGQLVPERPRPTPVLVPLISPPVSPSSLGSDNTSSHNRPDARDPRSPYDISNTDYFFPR
assay details: cell-based or functional assay
Classify: Satisfied when IC50 of inhibition of IL-6-induced TF-1 cell proliferation is strictly less than 0.9 nM; Not satisfied when IC50 of inhibition of IL-6-induced TF-1 cell proliferation is not.

Does the reported IC50 of inhibition of IL-6-induced TF-1 cell proliferation of the following binder sit strictly below 0.9 nM? 7F6 (VHH, also called VIL-7F6; 'Wild type' 7F6; not shown: C-terminal Flag and 6xHis tags from vector pMEK222) VHH: EVQLVESGGGLVQAGGSTRLTCLASGSISSINVIGWYRQAPGKQRELVAMIGRGEGANYGDFAKGRFTISRDNSKNTVYLQMNSLKPEDTAVYYCYADYEDRDSPFNGSWGQGTQVTVSS
Satisfied

Then what about the binder 3C12 (VHH, Llama ICVD from library 37-3, produced in E. coli; also called VIL-3C12; not shown: C-terminal Flag and 6xHis tags from vector pMEK222) VHH: EVQLVESGGGLAQLGGSLRLSCVASGNIFSSNTAGWFRQAPGKQREWVAGISIGGMPAYADSVKGRFTISRDNAKNTVYLQMNSLKPEDTAVYYCATGGTEYDYWGQGTQVTVSS ?
Not satisfied

Then what about the binder 20A11 (prior art comparative example) (VHH, Prior art anti-IL-6R polypeptide disclosed in WO 2010/115998; also called PMP20A11) VHH: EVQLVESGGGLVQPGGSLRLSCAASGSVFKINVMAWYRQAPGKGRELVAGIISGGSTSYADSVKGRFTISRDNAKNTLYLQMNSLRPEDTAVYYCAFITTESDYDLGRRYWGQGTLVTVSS ?
Not satisfied

Then what about the binder 4D3 (VHH, Llama ICVD from library 46-3, produced in E. coli; also called VIL-4D3; not shown: C-terminal Flag and 6xHis tags from vector pMEK222) VHH: EVQLVESGGGSVQAGESLTLSCVASISTFSQNAMGWFRQAAGKRRESVARISSSGNVGYTDAVKGRFTMSRDNAKKTVYLQMNSLKPEDTAVYYCNAYSMSGELAAPWGQGTQVTVSS ?
Not satisfied
